target: Adenosine receptor A1 (Homo sapiens) (UniProt P30542); test: Potentiation of [3H]CCPA binding to human adenosine A1 receptor expressed in CHO cell membranes at 10 uM after 90 mins relative to [3H]CCPA-treated control
Categories are defined by ranges of fold change (FC), namely low value: < 5; medium value: ≥ 5 and < 6; high value: ≥ 6

Worked examples, 9 molecules total:
[[record]]
molecule = "CC(C)(C)Cc1c(-c2ccccc2)sc(N)c1C(=O)c1cccc(C(F)(F)F)c1"
label_class = "low value"

[[record]]
molecule = "CC(C)(C)Cc1c(-c2ccc(F)cc2)sc(N)c1C(=O)c1ccc(Cl)cc1"
label_class = "medium value"

[[record]]
molecule = "CC(C)(C)Cc1c(-c2cccs2)sc(N)c1C(=O)c1ccc(Cl)cc1"
label_class = "high value"

[[record]]
molecule = "Cc1c(Br)sc(N)c1C(=O)c1ccc(Cl)cc1"
label_class = "low value"

[[record]]
molecule = "Cc1ccc(C(=O)c2c(N)sc(Br)c2CC(C)(C)C)cc1"
label_class = "high value"

[[record]]
molecule = "CC(C)(C)Cc1c(Br)sc(N)c1C(=O)c1cccc(C(F)(F)F)c1"
label_class = "low value"

[[record]]
molecule = "CC(C)(C)Cc1c(-c2ccccn2)sc(N)c1C(=O)c1ccc(Cl)cc1"
label_class = "low value"

[[record]]
molecule = "CC(C)(C)Cc1c(-c2ccoc2)sc(N)c1C(=O)c1ccc(Cl)cc1"
label_class = "medium value"

[[record]]
molecule = "Cc1ccc(C(=O)c2c(N)sc(-c3ccccc3)c2CC(C)(C)C)cc1"
label_class = "high value"


[ask] Dear colleague, I would appreciate it if you could identify the bin for "CC(C)(C)Cc1c(-c2ccccc2)sc(N)c1C(=O)c1ccccc1Cl" and reply at your convenience.
[reply] medium value

---

target: Adenosine receptor A1 (Homo sapiens); test: Allosteric enhancement of human adenosine A1 receptor expressed in CHO cells assessed as inhibition of forskolin-stimulated cAMP production at 10 uM preincubated for 10 mins followed by forskolin challenge measured after 5 mins by scintillation counting analysis relative to control; format: functional, cell-based
Attribute: inhibition

Solved entries:
[[record]]
molecule = "CC(C)(C)Cc1c(-c2ccc(F)cc2)sc(N)c1C(=O)c1ccc(Cl)cc1"
system_under_test = "Adenosine receptor A1 (Homo sapiens)"
measured = "50%"

[[record]]
molecule = "COCCOc1ccc(-c2sc(N)c(C(=O)c3ccc(Cl)cc3)c2CC(C)(C)C)cc1"
system_under_test = "Adenosine receptor A1 (Homo sapiens)"
measured = "53%"

[[record]]
molecule = "CC(C)(C)Cc1c(-c2ccsc2)sc(N)c1C(=O)c1ccc(Cl)cc1"
system_under_test = "Adenosine receptor A1 (Homo sapiens)"
measured = "62%"

[[record]]
molecule = "CC(C)(C)Cc1c(-c2cc(F)ccc2F)sc(N)c1C(=O)c1ccc(Cl)cc1"
system_under_test = "Adenosine receptor A1 (Homo sapiens)"
measured = "46%"

[[record]]
molecule = "CC(C)(C)Cc1c(-c2cccc(F)c2F)sc(N)c1C(=O)c1ccc(Cl)cc1"
system_under_test = "Adenosine receptor A1 (Homo sapiens)"
measured = "60%"

[[record]]
molecule = "CC(C)(C)Cc1c(-c2ccccc2)sc(N)c1C(=O)c1ccccc1Cl"
system_under_test = "Adenosine receptor A1 (Homo sapiens)"
measured = "38%"


[ask] What does the record list as inhibition for "CC(C)(C)Cc1csc(N)c1C(=O)c1ccc(Cl)c(Cl)c1" ?
[reply] 43%

[ask] What does the record list as inhibition for "CC(C)(C)Cc1c(-c2ccccc2)sc(N)c1C(=O)c1cccc(C(F)(F)F)c1" ?
[reply] 38%

[ask] What does the record list as inhibition for "CC(C)(C)Cc1c(-c2ccccc2)sc(N)c1C(=O)c1ccc(Cl)c(Cl)c1" ?
[reply] 56%

[ask] What does the record list as inhibition for "CC(C)(C)Cc1c(Br)sc(N)c1C(=O)c1ccc(Cl)c(Cl)c1" ?
[reply] 42%

[ask] What does the record list as inhibition for "Cc1ccc(-c2sc(N)c(C(=O)c3ccc(Cl)cc3)c2CC(C)(C)C)cc1" ?
[reply] 57%

[ask] What does the record list as inhibition for "Cc1noc(C)c1-c1sc(N)c(C(=O)c2ccc(Cl)cc2)c1CC(C)(C)C" ?
[reply] 12%

---

molecular target: Adenosine receptor A1 (Homo sapiens); assay: Allosteric enhancement of human adenosine A1 receptor expressed in CHO cells assessed as inhibition of forskolin-stimulated cAMP production at 10 uM preincubated for 10 mins followed by forskolin challenge measured after 5 mins by scintillation counting analysis relative to control; type: functional, cell-based
Entry flag: Y if inhibition reaches 50%; N if it does not.

Worked examples, 3 compounds total:
[[record]]
molecule = "Cc1c(Br)sc(N)c1C(=O)c1ccc(Cl)cc1"
label_class = "N"

[[record]]
molecule = "CC(C)(C)Cc1csc(N)c1C(=O)c1ccc(Cl)cc1"
label_class = "N"

[[record]]
molecule = "Cc1cccc(-c2sc(N)c(C(=O)c3ccc(Cl)cc3)c2CC(C)(C)C)c1"
label_class = "N"


[ask] Form field: inhibition at least 50%? Entry: "COc1ccc(-c2sc(N)c(C(=O)c3ccc(C)cc3)c2CC(C)(C)C)cc1"
[reply] Y

[ask] Form field: inhibition at least 50%? Entry: "COc1ccccc1-c1sc(N)c(C(=O)c2ccc(Cl)cc2)c1CC(C)(C)C"
[reply] N

[ask] Form field: inhibition at least 50%? Entry: "CC(C)(C)Cc1c(-c2cccs2)sc(N)c1C(=O)c1ccc(Cl)cc1"
[reply] Y

[ask] Form field: inhibition at least 50%? Entry: "Cc1ccc(C(=O)c2c(N)sc(Br)c2CC(C)(C)C)cc1"
[reply] Y

[ask] Form field: inhibition at least 50%? Entry: "CC(C)(C)Cc1c(-c2ccccc2)sc(N)c1C(=O)c1ccc(Cl)cc1Cl"
[reply] Y

---

Biological target: Adenosine receptor A1 (Homo sapiens)
Sequence (whole entry): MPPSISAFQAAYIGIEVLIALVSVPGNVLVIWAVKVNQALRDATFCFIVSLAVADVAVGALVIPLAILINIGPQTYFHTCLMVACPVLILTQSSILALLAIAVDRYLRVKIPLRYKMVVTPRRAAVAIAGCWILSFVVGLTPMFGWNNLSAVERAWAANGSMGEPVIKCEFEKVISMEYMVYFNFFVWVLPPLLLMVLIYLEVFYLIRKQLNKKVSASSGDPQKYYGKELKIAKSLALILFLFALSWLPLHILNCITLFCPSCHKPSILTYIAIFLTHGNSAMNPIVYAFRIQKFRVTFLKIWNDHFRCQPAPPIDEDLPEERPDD
Assay: Allosteric enhancement of human adenosine A1 receptor expressed in CHO cells assessed as inhibition of forskolin-stimulated cAMP production at 100 nM preincubated for 10 mins followed by forskolin challenge measured after 5 mins by scintillation counting analysis in presence of CCPA relative to control
Assay type: functional, cell-based
Entry flag: Fulfilled if inhibition reaches 50%; Not fulfilled if it does not.

[[record]]
molecule = "CC(C)(C)Cc1c(-c2cn[nH]c2)sc(N)c1C(=O)c1ccc(Cl)cc1"
label_class = "Not fulfilled"

[[record]]
molecule = "CC(C)(C)Cc1c(-c2ccc(F)cc2)sc(N)c1C(=O)c1ccc(Cl)cc1"
label_class = "Fulfilled"

[[record]]
molecule = "CC(C)Cc1csc(N)c1C(=O)c1ccc(Cl)cc1"
label_class = "Not fulfilled"

[[record]]
molecule = "CC(C)(C)Cc1c(-c2ccc3c(c2)OCO3)sc(N)c1C(=O)c1ccc(Cl)cc1"
label_class = "Fulfilled"

[[record]]
molecule = "COc1ccccc1-c1sc(N)c(C(=O)c2ccc(Cl)cc2)c1CC(C)(C)C"
label_class = "Not fulfilled"

[[record]]
molecule = "CC(C)(C)Cc1c(-c2cccs2)sc(N)c1C(=O)c1ccc(Cl)cc1"
label_class = "Fulfilled"

[[record]]
molecule = "COc1ccc(-c2sc(N)c(C(=O)c3ccc(Cl)cc3)c2C)cc1"
label_class = "Not fulfilled"


[ask] Form field: inhibition at least 50%? Entry: "Cc1c(-c2ccccc2)sc(N)c1C(=O)c1ccc(Cl)cc1"
[reply] Not fulfilled

---

Attribute: fold change (FC)
target: Adenosine receptor A1 (Homo sapiens) (UniProt P30542); assay: Potentiation of [3H]CCPA binding to human adenosine A1 receptor expressed in CHO cell membranes at 10 uM after 90 mins relative to [3H]CCPA-treated control

Solved entries:
[[record]]
molecule = "CC(C)(C)Cc1c(-c2ccccc2)sc(N)c1C(=O)c1ccc(Cl)c(Cl)c1"
measured = 5.9

[[record]]
molecule = "CC(C)(C)Cc1c(-c2ccc(Cl)c(Cl)c2)sc(N)c1C(=O)c1ccc(Cl)cc1"
measured = 6


[ask] What does the record list as fold change (FC) for "CC(C)(C)Cc1c(-c2cccc(F)c2F)sc(N)c1C(=O)c1ccc(Cl)cc1" ?
[reply] 6.1

[ask] What does the record list as fold change (FC) for "CC(C)(C)Cc1c(-c2ccco2)sc(N)c1C(=O)c1ccc(Cl)cc1" ?
[reply] 5.1

[ask] What does the record list as fold change (FC) for "COc1ccc(-c2sc(N)c(C(=O)c3cccc(Cl)c3)c2CC(C)(C)C)cc1" ?
[reply] 6
